meta.source: the supplement of paper PMC10307832

tested on: NCI-H2126; assay: relative viability (nuclei count vs DMSO), 5 days (fraction); higher = more cells survive; settings: first compound 6.325 µM

>  <Molecule>
Cc1csc(=NC2CCCCC2)n1/N=C/c1ccc(O)c(O)c1O [MIM1] + CC1(C)CCC(c2ccc(Cl)cc2)=C(CN2CCN(c3ccc(C(=O)NS(=O)(=O)c4ccc(N[C@H](CCN5CCOCC5)CSc5ccccc5)c(S(=O)(=O)C(F)(F)F)c4)cc3)CC2)C1 [Navitoclax] (partner 0.5 µM)

>  <Target Entity>
NCI-H2126

>  <relative viability>
0.831

$$$$
>  <Molecule>
Cc1csc(=NC2CCCCC2)n1/N=C/c1ccc(O)c(O)c1O [MIM1] + NC(=O)Nc1cc(-c2cccc(F)c2)sc1C(=O)N[C@H]1CCCNC1 [AZD7762] (partner 0.2 µM)

>  <Target Entity>
NCI-H2126

>  <relative viability>
0.913

$$$$
>  <Molecule>
Cc1csc(=NC2CCCCC2)n1/N=C/c1ccc(O)c(O)c1O [MIM1] + O=C(CCCCCCC(=O)Nc1ccccc1)NO [Vorinostat] (partner 1 µM)

>  <Target Entity>
NCI-H2126

>  <relative viability>
0.711

$$$$
>  <Molecule>
Cc1csc(=NC2CCCCC2)n1/N=C/c1ccc(O)c(O)c1O [MIM1] + C[C@]1(O)C[C@@H](c2nc(-c3ccc4ccc(-c5ccccc5)nc4c3)c3c(N)nccn32)C1 [Linsitinib] (partner 1 µM)

>  <Target Entity>
NCI-H2126

>  <relative viability>
0.707

$$$$

* * *

Examples of compounds with documented relative viability follow.
system: 201T; assay: relative viability (nuclei count vs DMSO), 5 days (fraction); higher = more cells survive; settings: first compound 0.006325 µM

>  <Compound>
CCNC(=O)c1noc(-c2cc(C(C)C)c(O)cc2O)c1-c1ccc(CN2CCOCC2)cc1 [Luminespib] + Cc1cc(Nc2cc(N3CCN(C)CC3)nc(Sc3ccc(NC(=O)C4CC4)cc3)n2)n[nH]1 [Tozasertib] (partner 0.1 µM)

>  <relative viability>
0.907

$$$$
>  <Compound>
CCNC(=O)c1noc(-c2cc(C(C)C)c(O)cc2O)c1-c1ccc(CN2CCOCC2)cc1 [Luminespib] + CC(=O)c1c(C)c2cnc(Nc3ccc(N4CCNCC4)cn3)nc2n(C2CCCC2)c1=O [Palbociclib] (partner 0.5 µM)

>  <relative viability>
0.366

$$$$
>  <Compound>
CCNC(=O)c1noc(-c2cc(C(C)C)c(O)cc2O)c1-c1ccc(CN2CCOCC2)cc1 [Luminespib] + Nc1nc2[nH]cc(CCc3ccc(C(=O)N[C@@H](CCC(=O)O)C(=O)O)cc3)c2c(=O)[nH]1 [Pemetrexed] (partner 0.2 µM)

>  <relative viability>
0.311

$$$$
>  <Compound>
CCNC(=O)c1noc(-c2cc(C(C)C)c(O)cc2O)c1-c1ccc(CN2CCOCC2)cc1 [Luminespib] + CS(=O)(=O)CCNCc1ccc(-c2ccc3ncnc(Nc4ccc(OCc5cccc(F)c5)c(Cl)c4)c3c2)o1 [Lapatinib] (partner 2 µM)

>  <relative viability>
0.961

$$$$

* * *

tested on: PC-3 [JPC-3]; assay: relative viability (nuclei count vs DMSO), 5 days (fraction); higher = more cells survive; details: first compound 0.6325 µM
Decide using relative viability alone. Strictly below 0.6: Y. Equal to or above 0.6: N.

>  <Compound>
Cc1csc(=NC2CCCCC2)n1/N=C/c1ccc(O)c(O)c1O [MIM1] + CC(=O)Nc1cccc(-n2c(=O)n(C3CC3)c(=O)c3c(Nc4ccc(I)cc4F)n(C)c(=O)c(C)c32)c1 [Trametinib] (partner 0.02 µM)

>  <Assigned Class>
N

$$$$
>  <Compound>
CN1CCN(CCOc2cc(OC3CCOCC3)c3c(Nc4c(Cl)ccc5c4OCO5)ncnc3c2)CC1 [Saracatinib] + NC(=O)Nc1cc(-c2cccc(F)c2)sc1C(=O)N[C@H]1CCCNC1 [AZD7762] (partner 0.2 µM)

>  <Assigned Class>
Y

$$$$
>  <Compound>
CN1CCN(CCOc2cc(OC3CCOCC3)c3c(Nc4c(Cl)ccc5c4OCO5)ncnc3c2)CC1 [Saracatinib] + O=C(CCCCCCC(=O)Nc1ccccc1)NO [Vorinostat] (partner 1 µM)

>  <Assigned Class>
Y

$$$$
>  <Compound>
CN1CCN(CCOc2cc(OC3CCOCC3)c3c(Nc4c(Cl)ccc5c4OCO5)ncnc3c2)CC1 [Saracatinib] + Cc1cc(Nc2cc(N3CCN(C)CC3)nc(Sc3ccc(NC(=O)C4CC4)cc3)n2)n[nH]1 [Tozasertib] (partner 0.1 µM)

>  <Assigned Class>
N

$$$$
>  <Compound>
CN1CCN(CCOc2cc(OC3CCOCC3)c3c(Nc4c(Cl)ccc5c4OCO5)ncnc3c2)CC1 [Saracatinib] + CC(=O)Nc1cccc(-n2c(=O)n(C3CC3)c(=O)c3c(Nc4ccc(I)cc4F)n(C)c(=O)c(C)c32)c1 [Trametinib] (partner 0.02 µM)

>  <Assigned Class>
Y

$$$$
